System: Trypanosoma cruzi
Test: microbe, parasite or virus in culture
Type: functional, organism-based, Tulahuen C4 (LacZ)
Settings: Trypanosoma cruzi, Tulahuen C4 (LacZ), 96 h
Description: DNDI: Chagas in Vitro, 96 hour

Compound: CNCCC=C1c2ccccc2CCc2ccccc21 [NORTRIPTYLINE]
IC50, µM: 22.9
//
Compound: N=C(N)c1ccc(OCCCCCOc2ccc(C(=N)N)cc2)cc1 [PENTAMIDINE]
IC50, µM: 4.44
//
Compound: Nc1nc(N)c2nc(-c3ccccc3)c(N)nc2n1
IC50, µM: 22.7
//
Compound: C[C@@H](Cc1cccc(C(F)(F)F)c1)NCCOC(=O)c1ccccc1
IC50, µM: 73.7

====

Reported pIC50 is given for each of the following compounds.
Test system: Trypanosoma cruzi
Assay: microbe, parasite or virus in culture
Assay type: functional, organism-based, Tulahuen C4 (LacZ)
Conditions: Trypanosoma cruzi, Tulahuen C4 (LacZ), 96 h
pIC50: −log10 of the molar value.

Compound: CCN(CCCCOC(=O)c1ccc(OC)c(OC)c1)C(C)Cc1ccc(OC)cc1 (centres undefined) [MEBEVERINE]
Tested Target: Trypanosoma cruzi
Relation Symbol: =
pIC50: 5.41

Compound: CC(=O)[C@H]1CC[C@@H]2[C@@H]3CC[C@@H]4C[C@](C)(O)CC[C@]4(C)[C@H]3CC[C@@]12C
Tested Target: Trypanosoma cruzi
Relation Symbol: =
pIC50: 4.19

Compound: CC(C)(C)NC(=O)[C@@H]1CN(Cc2cccnc2)CCN1C[C@@H](O)C[C@@H](Cc1ccccc1)C(=O)N[C@H]1c2ccccc2C[C@H]1O
Tested Target: Trypanosoma cruzi
Relation Symbol: =
pIC50: 4.03

Compound: NNC(=O)c1ccncc1 [ISONIAZID]
Tested Target: Trypanosoma cruzi
Relation Symbol: <
pIC50: 3.18

Compound: Nc1ccc(S(=O)(=O)Nc2ncccn2)cc1 [SULFADIAZINE]
Tested Target: Trypanosoma cruzi
Relation Symbol: =
pIC50: 4.60

Compound: CC(C)(C)NC(=O)[C@@H]1CC2CCCCC2CN1C[C@@H](O)[C@H](Cc1ccccc1)NC(=O)[C@H](CC(N)=O)NC(=O)c1ccc2ccccc2n1 (some centres undefined)
Tested Target: Trypanosoma cruzi
Relation Symbol: =
pIC50: 4.77

Compound: Fc1ccc([C@@H]2CCNC[C@H]2COc2ccc3c(c2)OCO3)cc1 [PAROXETINE]
Tested Target: Trypanosoma cruzi
Relation Symbol: =
pIC50: 4.84

Compound: CN(C)CCC=C1c2ccccc2CCc2ccccc21 [AMITRIPTYLINE]
Tested Target: Trypanosoma cruzi
Relation Symbol: =
pIC50: 4.45

Compound: CCN(CC)CCCCCCNc1cc(OC)cc2c(C)ccnc12 [SITAMAQUINE]
Tested Target: Trypanosoma cruzi
Relation Symbol: =
pIC50: 4.66

====

Test system: Plasmodium falciparum
Assay: microbe, parasite or virus in culture
Format: functional, organism-based, K1
Conditions: Plasmodium falciparum, K1, 72 h
Description: DNDI: Malaria in Vitro, 72 hour
pIC50: −log10 of the molar value.

Compound: O=C(O)c1nn(Cc2ccc(Cl)cc2Cl)c2ccccc12 [LONIDAMINE]
Relation Symbol: <
pIC50: 4.81
//
Compound: CC(C)(C)NC(=O)[C@@H]1CN(Cc2cccnc2)CCN1C[C@@H](O)C[C@@H](Cc1ccccc1)C(=O)N[C@H]1c2ccccc2C[C@H]1O
Relation Symbol: =
pIC50: 5.22
//
Compound: CC(C)/N=c1\cc2n(-c3ccc(Cl)cc3)c3ccccc3nc-2cc1Nc1ccc(Cl)cc1 [CLOFAZIMINE]
Relation Symbol: =
pIC50: 5.39
//
Compound: O=C(O)c1cn(C2CC2)c2cc(N3CCNCC3)c(F)cc2c1=O [CIPROFLOXACIN]
Relation Symbol: =
pIC50: 4.88
//
Compound: CN(C/C=C/C#CC(C)(C)C)Cc1cccc2ccccc12 [TERBINAFINE]
Relation Symbol: =
pIC50: 5.11
//
Compound: CCn1cc(C(=O)O)c(=O)c2cc(F)c(N3CCNCC3)nc21 [ENOXACIN]
Relation Symbol: =
pIC50: 4.11
//
Compound: Cc1cccc(N(C)C(=S)Oc2ccc3ccccc3c2)c1 [TOLNAFTATE]
Relation Symbol: =
pIC50: 4.72
//
Compound: CCC[C@@]1(CCc2ccccc2)CC(O)=C([C@H](CC)c2cccc(NS(=O)(=O)c3ccc(C(F)(F)F)cn3)c2)C(=O)O1
Relation Symbol: =
pIC50: 4.35

====

Tested on: Trypanosoma cruzi
Assay: microbe, parasite or virus in culture
Type: functional, organism-based, Tulahuen C4 (LacZ)
pIC50: −log10 of the molar value.
Quantity: pIC50

Macromolecule Sequence: AURANOFIN
Quantity: pIC50
Recorded Measurement: 5.64

====

Tested on: Trypanosoma cruzi
Test: microbe, parasite or virus in culture
Format: functional, organism-based, Tulahuen C4 (LacZ)
Settings: Trypanosoma cruzi, Tulahuen C4 (LacZ), 96 h
pIC50: −log10 of the molar value.

Compound: CN1CCN(CCCN2c3ccccc3Sc3ccc(C(F)(F)F)cc32)CC1
Relation Symbol: =
pIC50: 4.99

Compound: CC(=O)N1CCN(c2ccc(OCC3COC(Cn4ccnc4)(c4ccc(Cl)cc4Cl)O3)cc2)CC1 (centres undefined)
Relation Symbol: =
pIC50: 6.57

Compound: CC(C)c1nc(CN(C)C(=O)N[C@H](C(=O)N[C@@H](Cc2ccccc2)C[C@H](O)[C@H](Cc2ccccc2)NC(=O)OCc2cncs2)C(C)C)cs1
Relation Symbol: =
pIC50: 4.68

Compound: CCC[C@@H]1C[C@@H](C(=O)N[C@H]([C@@H]2O[C@H](SC)[C@H](O)[C@@H](O)[C@H]2O)[C@@H](C)O)N(C)C1
Relation Symbol: <
pIC50: 3.65

Compound: CN(C)c1ccc(O)c2c1C[C@H]1C[C@H]3[C@H](N(C)C)C(O)=C(C(N)=O)C(=O)[C@@]3(O)C(O)=C1C2=O
Relation Symbol: =
pIC50: 4.65

Compound: C[C@H]1c2cccc(O)c2C(O)=C2C(=O)[C@]3(O)C(=O)/C(=C(/N)O)C(=O)[C@@H](N(C)C)[C@@H]3[C@@H](O)[C@@H]21
Relation Symbol: =
pIC50: 4.41

Compound: Cc1cc(C2CCCCC2)n(O)c(=O)c1
Relation Symbol: =
pIC50: 5.60

Compound: COc1ccc(Cl)cc1C(=O)NCCc1ccc(S(=O)(=O)NC(=O)NC2CCCCC2)cc1 [GLYBURIDE]
Relation Symbol: =
pIC50: 4.03

Compound: CCC[C@@]1(CCc2ccccc2)CC(O)=C([C@H](CC)c2cccc(NS(=O)(=O)c3ccc(C(F)(F)F)cn3)c2)C(=O)O1
Relation Symbol: =
pIC50: 4.55

Compound: CO[C@H]1/C=C/O[C@@]2(C)Oc3c(C)c(O)c4c(O)c(c(/C=N/N5CCN(C)CC5)c(O)c4c3C2=O)NC(=O)/C(C)=C\C=C\[C@H](C)[C@H](O)[C@@H](C)[C@@H](O)[C@H](C)[C@H](OC(C)=O)[C@H]1C
Relation Symbol: <
pIC50: 3.96

Compound: Cc1cccc(N(C)C(=S)Oc2ccc3ccccc3c2)c1 [TOLNAFTATE]
Relation Symbol: =
pIC50: 4.70

Compound: OC(Cn1cncn1)(Cn1cncn1)c1ccc(F)cc1F
Relation Symbol: =
pIC50: 5.00

Compound: COc1cc(N[C@H](C)CCCN)c2ncccc2c1
Relation Symbol: =
pIC50: 4.75

Compound: CN(C)CCCN1c2ccccc2Sc2ccc(Cl)cc21
Relation Symbol: =
pIC50: 4.77

Compound: Cc1ncc([N+](=O)[O-])n1CC(C)O (centres undefined)
Relation Symbol: <
pIC50: 3.79

Compound: CN1CC(=O)N2[C@H](c3ccc4c(c3)OCO4)c3[nH]c4ccccc4c3C[C@@H]2C1=O
Relation Symbol: =
pIC50: 5.07

Compound: C#C[C@]1(O)CC[C@H]2[C@@H]3CCC4=Cc5oncc5C[C@]4(C)[C@H]3CC[C@@]21C
Relation Symbol: =
pIC50: 5.20

Compound: C[C@@H](c1ncncc1F)[C@](O)(Cn1cncn1)c1ccc(F)cc1F
Relation Symbol: =
pIC50: 4.95

Compound: CC1CS(=O)(=O)CCC1/N=N/c1ccc([N+](=O)[O-])o1 (centres undefined)
Relation Symbol: =
pIC50: 6.72

Compound: CO[C@H]1/C=C/O[C@@]2(C)Oc3c(C)c(O)c4c(c3C2=O)C2=NC3(CCN(CC(C)C)CC3)NC2=C(NC(=O)/C(C)=C\C=C\[C@H](C)[C@H](O)[C@@H](C)[C@@H](O)[C@H](C)[C@H](OC(C)=O)[C@H]1C)C4=O
Relation Symbol: =
pIC50: 4.56

Compound: O=C1CN(/N=C/c2ccc([N+](=O)[O-])o2)C(=O)N1
Relation Symbol: =
pIC50: 5.36

Compound: O=C(O)c1cn(C2CC2)c2cc(N3CCNCC3)c(F)cc2c1=O
Relation Symbol: =
pIC50: 4.04

Compound: CO[C@H]1/C=C/O[C@]2(C)Oc3c(C)c(O)c4c(O)c(c5c(nc6cc(C)ccn65)c4c3C2=O)NC(=O)/C(C)=C\C=C\[C@H](C)[C@H](O)[C@@H](C)[C@@H](O)[C@H](C)[C@H](OC(C)=O)[C@H]1C
Relation Symbol: =
pIC50: 4.40

Compound: Cc1cccc(C)c1OCC(=O)N[C@@H](Cc1ccccc1)[C@@H](O)C[C@H](Cc1ccccc1)NC(=O)[C@H](C(C)C)N1CCCNC1=O
Relation Symbol: =
pIC50: 4.81

Compound: c1ccc(-c2ccc(C(c3ccccc3)n3ccnc3)cc2)cc1 (centres undefined)
Relation Symbol: =
pIC50: 8.52

Compound: CO[C@H]1/C=C/O[C@@]2(C)Oc3c(C)c(O)c4c(O)c(cc(O)c4c3C2=O)NC(=O)/C(C)=C\C=C\[C@H](C)[C@H](O)[C@@H](C)[C@@H](O)[C@@H](C)[C@H](OC(C)=O)[C@@H]1C
Relation Symbol: =
pIC50: 4.30

Compound: CN(C/C=C/C#CC(C)(C)C)Cc1cccc2ccccc12
Relation Symbol: =
pIC50: 4.39

Compound: C[C@H]1[C@@H](OC(=O)CCC(=O)O)O[C@@H]2O[C@]3(C)CC[C@H]4[C@H](C)CC[C@@H]1[C@@]24OO3
Relation Symbol: =
pIC50: 5.05

Compound: O[C@@H](c1cc(C(F)(F)F)nc2c(C(F)(F)F)cccc12)[C@H]1CCCCN1 [(S,R)-MEFLOQUINE]
Relation Symbol: =
pIC50: 5.35

Where do the numbers come from? From ChEMBL document CHEMBL3392926.
